Assay: physchem
Description: Dissociation constant, pKa of the compound
READOUT NAME: pKa
Reply with the value as a number alone.

Request: Using the record for Cc1ccc(CN2C[C@@H]3C[C@H]4[C@@H]5C[C@H](F)C6=CC(=O)C=C[C@]6(C)[C@@]5(F)[C@@H](O)C[C@]4(C)[C@]3(C(=O)CO)C2)cc1 , report its pKa.
Result: 7.11

Request: Using the record for C[C@]12C=CC(=O)C=C1[C@@H](F)C[C@H]1[C@@H]3C[C@H]4CN(Cc5ccccc5)C[C@@]4(C(=O)CO)[C@@]3(C)C[C@H](O)[C@@]12F , report its pKa.
Result: 6.96

Request: Using the record for CC(=O)[C@@]12CN(Cc3cccc(Cl)c3)C[C@@H]1C[C@H]1[C@@H]3C[C@H](F)C4=CC(=O)C=C[C@]4(C)[C@@]3(F)[C@@H](O)C[C@@]12C , report its pKa.
Result: 6.9
